- assayMethodText: CREB reporter modulators under forskolin, primary screen, cell-based, PC12, CRE-LacZ reporter, forskolin-stimulated (AID 1146);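 also: PC12 cells with 6xCRE LacZ reporter stimulated by forskolin 10 µM; beta-galactosidase reporter signal reflecting CREB driven transcription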
- settings: luminescence, 4.5 h, higher = more signal, called active from +8 up or from −8 down

- compound: "O=C(NCCC[N+]1=CC=NC1c1ccccc1)N1CCCc2nc(-c3ccc(Br)cc3)ccc21 (centres undefined)"
  z-score: -0.0384
- compound: "COC(=O)CC=C[C@@H](C)[C@@H](C=NOC(C)CN1CCCCc2nc(C)c(C)cc21)NS(=O)(=O)c1ccc(C)cc1 (some centres undefined)"
  z-score: 0.877
- compound: "O=C1[C@H]2[C@H]3[C@H](O)[C@H](O)CC(=NO[C@@H]4O[C@H](CO)[C@@H](O)[C@H](O)[C@H]4O)[C@@H]3CC[C@H]2C(=O)N1C1CCCCC1"
  z-score: 0.758
- compound: "CC(C)CON=C1C[C@@H](O)[C@@H](O)[C@@H]2[C@@H]3C(=O)N(c4ccc(F)cc4F)C(=O)[C@@H]3CC[C@@H]12"
  z-score: 0.391

* * *

- assayMethodText: splicing luciferase reporter signal modulators, primary screen, spliceosome inhibition project, cell-based, HEK293, splice +/- reporter (AID 1101);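 also: HEK293 cells carrying a splicing-competent luciferase reporter gene; test concentration not given here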
- settings: luminescence, 24 h, higher = more signal, called active from +8 up or from −8 down

- molecule: "COC(=O)[C@@H]1CC[C@H](C)[C@@H](c2ccc(C)cc2)N1C(=O)c1ccc(C=NO[C@@H](C)c2cc(-c3c(C)cc(C)cc3C)no2)cc1"
  z-score: -1.04
- molecule: "CCN1C(=O)[C@H]2[C@H]3[C@H](O)[C@H](O)CC(=NO[C@@H]4O[C@H](COC(C)=O)[C@@H](OC(C)=O)[C@H](OC(C)=O)[C@H]4OC(C)=O)[C@@H]3CC[C@H]2C1=O"
  z-score: 0.5
- molecule: "COC(=O)CC=C[C@@H](C)[C@@H](C=NOC(C)CN1CCCCc2nc(C)c(C)cc21)OC (some centres undefined)"
  z-score: 0.854
- molecule: "COC(=O)CC=C[C@@H](C)[C@@H](C=NOC[C@@H](C)[C@H](OCc1ccccc1)C(C)C)NS(=O)(=O)c1ccc(C)cc1"
  z-score: -0.21
- molecule: "CC(C)CON=C1C[C@@H](O)[C@@H](O)[C@@H]2[C@@H]3C(=O)N(C(C)(C)C)C(=O)[C@@H]3CC[C@@H]12"
  z-score: -1.15
- molecule: "C[C@H]1CC[C@@H](C(=O)O)N[C@@H]1c1ccc(C#Cc2ccccc2)cc1"
  z-score: 0.29
- molecule: "CC(C)[C@@H](OCc1ccccc1)[C@H](C)C=NO[C@@H](C)c1cn([C@H](CO)Cc2ccccc2)nn1"
  z-score: 0.357
- molecule: "COc1ccc(O[C@H]2C=C[C@@H](c3ccccc3)O[C@@H]2COC(=O)NCc2cccc3ccccc23)cc1"
  z-score: -0.134
- molecule: "CCOC(=O)CCN1C(=O)[C@H]2[C@H]3[C@H](O)[C@H](O)CC(=NOCC=C(C)CCC=C(C)C)[C@@H]3CC[C@H]2C1=O"
  z-score: 0.0459
- molecule: "COc1ccc(COC(=O)NN=C2C[C@@H](O)[C@@H](O)[C@@H]3[C@@H]4C(=O)N(C(C)(C)C)C(=O)[C@@H]4CC[C@@H]23)cc1"
  z-score: 0.992
- molecule: "CCOC(=O)[C@H](CC(C)C)NC(=O)CCC1CC(OC(=O)NCc2ccc3c(c2)OCO3)CC2(CCCC(COC(=O)NCCOC)O2)O1 (some centres undefined)"
  z-score: -0.191
- molecule: "COC(=O)[C@H](C)NC(=O)CCC1CC(OC(=O)NCc2ccc3c(c2)OCO3)CC2(CCCC(COC(=O)NCCc3ccc(Cl)cc3)O2)O1 (some centres undefined)"
  z-score: -0.51
- molecule: "C=CC[C@@H]1C=C[C@H](ON=C2C[C@@H](O)[C@@H](O)[C@@H]3[C@@H]4C(=O)N(CC)C(=O)[C@@H]4CC[C@@H]23)[C@@H](CO)O1"
  z-score: -1.2
- molecule: "O=C(NN=C1C[C@@H](O)[C@@H](O)[C@@H]2[C@@H]3C(=O)N(Cc4ccccc4)C(=O)[C@@H]3CC[C@H]12)OCc1ccccc1"
  z-score: -0.865
